Target: Cannabinoid receptor 1 (Homo sapiens, UniProt P21554)
Sequence (P21554 whole entry): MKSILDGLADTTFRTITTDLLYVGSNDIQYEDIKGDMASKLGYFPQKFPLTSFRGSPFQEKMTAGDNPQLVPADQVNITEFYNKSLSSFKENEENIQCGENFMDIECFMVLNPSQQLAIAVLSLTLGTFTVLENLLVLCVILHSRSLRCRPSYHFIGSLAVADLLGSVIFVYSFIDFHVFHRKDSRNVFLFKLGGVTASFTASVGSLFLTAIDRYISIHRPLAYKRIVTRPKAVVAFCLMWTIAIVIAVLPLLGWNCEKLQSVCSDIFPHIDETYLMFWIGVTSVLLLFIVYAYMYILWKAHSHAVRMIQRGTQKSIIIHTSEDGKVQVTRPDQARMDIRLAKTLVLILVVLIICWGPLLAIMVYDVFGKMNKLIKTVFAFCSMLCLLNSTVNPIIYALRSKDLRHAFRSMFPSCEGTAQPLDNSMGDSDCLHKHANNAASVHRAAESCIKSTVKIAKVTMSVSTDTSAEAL
Measurement name: Ki (nM)
Number in nM, nothing else.

Give Ki (Cannabinoid receptor 1 (Homo sapiens, UniProt P21554)) of the following molecule: Cc1ccc([C@@H](c2ccc(Cl)cc2Cl)N2CCN(C(=O)NC3CCCCC3)CC2)cc1
1.1

---

Assay: Tmax in Sprague-Dawley rat at 10 mg/kg, po by LC/MS/MS analysis
Assay type: ADME, organism-based
Parameters: dose 10 mg/kg, route oral
Settings: in vivo
Known Tmax of a selection of molecules
Could you kindly put the unit after your number?

Answered cases to consult:
* Cc1ccc([C@@H](c2ccc(Cl)cc2Cl)N2CCN(C(=O)NC3CCCCC3)CC2)cc1 | 1.3 h
* Cc1ccc([C@H](c2ccc(Cl)cc2Cl)N2CCN(C(=O)NC3CCCCC3)CC2)cc1 | 1.2 h

Field: next molecule
Given the molecule Cc1ccc(C(c2ccc(Cl)cc2Cl)N2CCN(C(=O)NC3CCCCC3)CC2)cc1 (racemic) , what is its reported Tmax?
2.4 h

---

Test: Oral bioavailability in Sprague-Dawley rat at 10 mg/kg by LC/MS/MS analysis
Type: ADME, organism-based
Conditions: in vivo
Known bioavailability of a selection of molecules
Number in %, nothing else.

* Cc1ccc(C(c2ccc(Cl)cc2Cl)N2CCN(C(=O)NC3CCCCC3)CC2)cc1 (racemic) | 8
* Cc1ccc([C@@H](c2ccc(Cl)cc2Cl)N2CCN(C(=O)NC3CCCCC3)CC2)cc1 | 6

Field: next molecule
Given the molecule Cc1ccc([C@H](c2ccc(Cl)cc2Cl)N2CCN(C(=O)NC3CCCCC3)CC2)cc1 , what is its reported bioavailability?
15

---

Assay: AUC (0 to infinity) in Sprague-Dawley rat at 10 mg/kg, po by LC/MS/MS analysis
Format: ADME, organism-based
Set-up: time infinity, dose 10 mg/kg, route oral
Conditions: plasma
Measurement name: AUC(0-inf) (ng·h/mL)
Number in ng·h/mL, nothing else.

Answered cases to consult:
• Cc1ccc(C(c2ccc(Cl)cc2Cl)N2CCN(C(=O)NC3CCCCC3)CC2)cc1 (racemic) = 883
• Cc1ccc([C@H](c2ccc(Cl)cc2Cl)N2CCN(C(=O)NC3CCCCC3)CC2)cc1 = 655

Given the compound Cc1ccc([C@@H](c2ccc(Cl)cc2Cl)N2CCN(C(=O)NC3CCCCC3)CC2)cc1 , what is its reported AUC(0-inf)?
695

---

Molecular target: Cannabinoid receptor 2 (Homo sapiens, UniProt P34972)
Sequence (P34972 whole entry): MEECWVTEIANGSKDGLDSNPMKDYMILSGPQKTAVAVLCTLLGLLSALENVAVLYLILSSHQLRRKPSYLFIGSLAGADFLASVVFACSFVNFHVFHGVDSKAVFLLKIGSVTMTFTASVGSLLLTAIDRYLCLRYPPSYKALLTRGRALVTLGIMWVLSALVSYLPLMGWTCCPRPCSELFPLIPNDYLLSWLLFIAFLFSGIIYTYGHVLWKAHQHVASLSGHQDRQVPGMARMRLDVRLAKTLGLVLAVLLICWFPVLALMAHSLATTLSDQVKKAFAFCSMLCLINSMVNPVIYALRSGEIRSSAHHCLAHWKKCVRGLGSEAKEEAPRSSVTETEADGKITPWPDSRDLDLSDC
Measurement name: Ki (nM)
Number in nM, nothing else.

Given the compound Cc1ccc([C@H](c2ccc(Cl)cc2Cl)N2CCN(C(=O)NC3CCCCC3)CC2)cc1 , what is its reported Ki?
227

---

Biological target: UniProt P21554
Experiment: Antagonist activity at human CB1 receptor expressed in CHO cells coexpressing Galpha15/16 assessed as inhibition of CP55940-induced Ca2+ release after 10 mins by micro plate reader assay
Measurement name: IC50 (nM)
Number in nM, nothing else.

• Cc1ccc([C@@H](c2ccc(Cl)cc2Cl)N2CCN(C(=O)NC3CCCCC3)CC2)cc1 = 21.5

Given the molecule Cc1ccc([C@H](c2ccc(Cl)cc2Cl)N2CCN(C(=O)NC3CCCCC3)CC2)cc1 , what is its reported IC50?
0.9

Attribution: ChEMBL document CHEMBL1909527
